Reference for the values: patent US9657009B2

Here, each record is paired with measured pIC50 data.
- measured target: IRAK4 (Homo sapiens (Human), UniProt Q9NWZ3)
- Sequence (Q9NWZ3 whole entry, species assumed): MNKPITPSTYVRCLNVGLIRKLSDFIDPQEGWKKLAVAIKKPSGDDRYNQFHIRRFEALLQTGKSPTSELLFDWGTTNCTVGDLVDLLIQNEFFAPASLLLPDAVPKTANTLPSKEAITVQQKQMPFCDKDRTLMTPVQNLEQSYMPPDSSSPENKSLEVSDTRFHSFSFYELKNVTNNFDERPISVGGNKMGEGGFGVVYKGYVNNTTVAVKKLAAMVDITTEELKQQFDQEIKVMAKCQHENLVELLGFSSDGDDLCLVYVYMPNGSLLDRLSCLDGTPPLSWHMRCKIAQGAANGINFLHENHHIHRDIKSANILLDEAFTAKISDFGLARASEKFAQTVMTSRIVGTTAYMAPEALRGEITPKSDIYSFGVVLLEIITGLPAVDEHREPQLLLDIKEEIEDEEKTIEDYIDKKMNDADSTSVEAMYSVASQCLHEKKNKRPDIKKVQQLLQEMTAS
- measurement description: IRAK4 Inhibition Assay
- Format: biochemical
- setup conditions: ATP 500 μM; IRAK4 0.6 nM; 60 min at room temperature; read-out: IRAK4 IC50
Reminder that pIC50 is minus the log10 of a molar concentration.

Below are worked cases with known answers.
CC(C)(O)[C@H](F)CNC(=O)c1cnc(Nc2ncc(F)cc2F)cc1NC1CC1 ... 7.84
CC(C)Nc1cc(Nc2ncc(C#N)cn2)ncc1C(=O)NC[C@@H](F)C(C)(C)O ... 8.28
CC(C)(O)[C@H](F)CNC(=O)c1cnc(Nc2ncc(C#N)cc2F)cc1NC12CCC(O)(CC1)C2 ... 8.49
COc1cccc(Nc2cc(Nc3ncc(C#N)cc3F)ncc2C(=O)NC[C@@H](F)C(C)(C)O)c1 ... 8.40
CC(C)(O)[C@H](F)CNC(=O)c1cnc(Nc2ncc(C#N)cc2F)cc1NC1COC1 ... 8.10

In the following, a different molecule is considered.
Answer with reported pIC50 of CC(C)Nc1cc(Nc2ccnc(N)n2)ncc1C(=O)NC[C@@H](F)C(C)(C)O
7.97

---

- measured target: IRAK4 (Homo sapiens (Human), UniProt Q9NWZ3)
- measurement description: IRAK4 Inhibition Assay
- Assay type: biochemical
- setup conditions: ATP 500 μM; IRAK4 0.6 nM; 60 min at room temperature; read-out: IRAK4 IC50
pIC50 values, listed per item
Recall that pIC50 is obtained by taking minus log10 of the concentration measured in molar.

Please review the entries below; each comes with its answer.
CC(C)Nc1cc(Nc2ncc(C#N)cc2F)ncc1C(=O)N[C@H]1CC[C@H](C(C)(C)O)CC1 ... 8.39
CC(C)Nc1cc(Nc2ccc(C#N)cn2)ncc1C(=O)N[C@H]1CC[C@H](C(=O)NC2CC2)CC1 ... 8.26
CCC(C)Nc1cc(Nc2ncc(C#N)cn2)ncc1C(=O)NC[C@@H](F)C(C)(C)O (stereo partly drawn) ... 8.38
CC(C)Nc1cc(Nc2ncc(C#N)cc2F)ncc1C(=O)NC[C@@H](F)C(C)(C)O ... 8.02
CC(=O)N[C@H]1CC[C@H](NC(=O)c2cnc(Nc3ccc(C#N)cn3)cc2NC(C)C)CC1 ... 8.13

Dear colleague, please send me the reported pIC50 for CC(C)(O)[C@H](F)CNC(=O)c1cnc(Nc2ncc(C#N)cc2Cl)cc1NC1CCCCC1O (stereo partly drawn) when you can.
8.07

Give recorded pIC50. CC(C)(O)c1cnc(Nc2cc(Nc3ncc(C#N)cc3Cl)ncc2C(=O)NC[C@@H](F)C(C)(C)O)s1
8.85

Using the record for CC(C)(O)[C@H](F)CNC(=O)c1cnc(Nc2ncc(C#N)cc2Cl)cc1NC1CCC(F)C1 (stereo partly drawn) [Example 57] , state its measured pIC50.
8.74

Supply pIC50 value. Item: COC(=O)Cn1cc(Cl)c(Nc2cc(NC(C)C)c(C(=O)NC[C@@H](F)C(C)(C)O)cn2)n1
7.76

Tell me pIC50 reported for CC(C)CCNc1cc(Nc2ncc(C#N)cc2Cl)ncc1C(=O)NC[C@@H](F)C(C)(C)O
8.14

Tell me its pIC50 given CC(C)(O)C(F)(F)CNC(=O)c1cnc(Nc2ncc(C#N)cc2Cl)cc1NC1CC1 as the entry.
7.97

Read off the recorded pIC50 for C[C@@H](CF)Nc1cc(Nc2ncc(C#N)cc2Cl)ncc1C(=O)NC[C@@H](F)C(C)(C)O
8.42

Answer with reported pIC50 of CC(=O)N[C@H]1CC[C@H](NC(=O)c2cnc(Nc3ncc(C#N)cc3Cl)cc2NC(C)C)CC1
8.28
